- Protocol Notes: Solubility in aqueous solution (deionized, distilled water)
- Type: physicochemical
- Study Conditions: kinetic from dmso stock, 1% DMSO, read-out: Aqueous Solubility H2O
Measurement Label: solubility at 1 h (µM)
Kindly provide the numeric value in µM only, without the unit symbol.

Below: 4 compounds and their reported solubility at 1 h.
# Chemical Structure, solubility at 1 h [µM]
measured = [
    ("Cc1ccc(-c2ccc(Sc3[nH]nnc3C(=O)O)cc2)cc1", 72.7),
    ("O=C(O)c1nn[nH]c1Oc1ccc(-c2ccccc2)nc1", 99),
    ("Cc1cc(Oc2[nH]nnc2C(=O)O)ccc1Cl", 93.5),
    ("COc1cc(-c2ccc(Oc3[nH]nnc3C(=O)O)cc2)ccc1F", 90.1),
]

Please find the next compound below.
For record CC(C)=Cc1ccc(Oc2[nH]nnc2C(=O)O)cc1 the listed solubility at 1 h is 82.5
